The measurements presented in this section are drawn from ChEMBL document CHEMBL1127128.

# targetOfAssay: Endothelin receptor type B (Rattus norvegicus, UniProt P21451)
# Sequence (P21451 whole entry): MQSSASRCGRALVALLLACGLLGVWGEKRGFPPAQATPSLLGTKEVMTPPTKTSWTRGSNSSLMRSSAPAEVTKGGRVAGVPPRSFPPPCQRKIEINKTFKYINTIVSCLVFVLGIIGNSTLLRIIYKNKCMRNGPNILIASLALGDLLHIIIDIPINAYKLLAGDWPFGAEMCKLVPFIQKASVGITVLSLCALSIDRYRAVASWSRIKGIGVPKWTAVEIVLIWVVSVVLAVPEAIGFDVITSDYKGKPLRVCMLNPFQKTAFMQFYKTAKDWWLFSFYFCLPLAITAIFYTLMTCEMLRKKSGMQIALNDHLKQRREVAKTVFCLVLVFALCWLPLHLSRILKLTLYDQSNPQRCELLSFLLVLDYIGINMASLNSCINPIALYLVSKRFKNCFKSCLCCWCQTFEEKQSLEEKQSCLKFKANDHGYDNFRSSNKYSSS
# testDescription: Tested for its ability to inhibit the binding of [125I]ET1 to the Endothelin B receptor in rat cerebellum membranes.
# Format: cell membranes, Membrane
readout: pIC50
The quantity pIC50 is defined as the negative base-10 logarithm of the molar concentration.

Exercise: Tell me its pIC50 on Endothelin receptor type B (Rattus norvegicus, UniProt P21451): COC(=O)C1=C(C)N=C(C)/C(=C(/O)OC(=O)C2=C(C)N=C(C)/C(=C(/O)OC)[C@@H]2c2cccc([N+](=O)[O-])c2)[C@@H]1c1cccc([N+](=O)[O-])c1
Key: 6.53

---

# targetOfAssay: Endothelin receptor type B (Rattus norvegicus, UniProt P21451)
# testDescription: Tested for its inhibitory activity against Endothelin B receptor
readout: pIC50
The quantity pIC50 is defined as the negative base-10 logarithm of the molar concentration.

Exercise: For the compound COC(=O)C1=C(C)N=C(C)/C(=C(/O)OC(=O)C2=C(C)N=C(C)/C(=C(/O)OC)[C@@H]2c2cccc([N+](=O)[O-])c2)[C@H]1c1cccc([N+](=O)[O-])c1 , give its reported pIC50.
Key: 5.57

---

# testDescription: The half-life period was reported.
# Assay type: ADME
readout: half-life

Exercise: For the compound COC(=O)C1=C(C)N=C(C)/C(=C(/O)OC(=O)C2=C(C)N=C(C)/C(=C(/O)OC)[C@@H]2c2cccc([N+](=O)[O-])c2)[C@@H]1c1cccc([N+](=O)[O-])c1 , give its reported half-life.
Key: < 60 min
